- System: McpC ligand-binding domain (Salmonella Typhimurium SL1344)
- Assay notes: protein melting temperature (Tm) in presence of compound (degrees C); higher = more thermal stabilisation (possible ligand binding)
- Test settings: Biolog plate: PM01; compound stock concentration: 10-20 mM, 2 uL in 10 uL reaction
Assay metric: protein melting temperature

# Compound, Test target, protein melting temperature
records = [
    ("O=C(O)/C=C/C(=O)O", "McpC ligand-binding domain (Salmonella Typhimurium SL1344)", 44.6),
    ("NC(=O)[C@H]1O[C@@H](O)[C@H](O)[C@@H](O)[C@@H]1O [Glucuronamide]", "McpC ligand-binding domain (Salmonella Typhimurium SL1344)", 44.9),
    ("O=C(O)C[C@H](O)C(=O)O", "McpC ligand-binding domain (Salmonella Typhimurium SL1344)", 44.3),
    ("CCCCCCCC/C=C\\CCCCCCCC(=O)OCCOCC(OCCO)C1OCC(OCCO)C1OCCO (stereo not drawn)", "McpC ligand-binding domain (Salmonella Typhimurium SL1344)", 45.3),
    ("OC[C@@H](O)[C@@H](O)[C@H](O)[C@@H](O)CO", "McpC ligand-binding domain (Salmonella Typhimurium SL1344)", 45),
    ("CC(=O)C(=O)O", "McpC ligand-binding domain (Salmonella Typhimurium SL1344)", 44.9),
    ("OC[C@H]1O[C@H](O)[C@H](O)[C@@H](O)[C@@H]1O", "McpC ligand-binding domain (Salmonella Typhimurium SL1344)", 44.9),
    ("O=C(O)Cc1cccc(O)c1 [m-Hydroxyphenyl Acetic acid]", "McpC ligand-binding domain (Salmonella Typhimurium SL1344)", 44.9),
]

// data source = the supplement of paper PMC7806825
